Test: S. cerevisiae RM11-1a growth modifiers, primary screen, strain RM11-1a, OD600, basal, 24 h (AID 1177);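 further: cultures grown under basal conditions with no added stressor; test concentration not given here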
Details: OD600, 24 h, higher = more signal, called active from +8 up or from −8 down
Reported z-score maps to class as: band 1: < 0.3; band 2: ≥ 0.3 and < 2; band 3: ≥ 2

Record excerpt, results attached:
Compound: O=C1OCC=C[C@H]2OC34C=CCN(Cn5nnc6ccccc65)C(=O)[C@H]3N(CCO)C(=O)[C@@H]4[C@@H]12 (stereo not given in full)
Class: band 1

Compound: COCCOC(=O)N1C(=O)[C@@]2(c3cc(C#CC4=CCCCC4)ccc31)[C@H](C(=O)N1CCCCCCC1)[C@H]1C(=O)O[C@H](c3ccccc3)[C@H](c3ccccc3)N1[C@@H]2c1ccccc1OCCO
Class: band 2

Compound: CO[C@H]1O[C@H](CO)[C@@H](OC(=O)Nc2cccc(F)c2)[C@H](OC(=O)Nc2ccc3c(c2)OCO3)[C@@H]1OC(=O)Nc1ccc2c(c1)OCO2
Class: band 2

Exam item: Using the reported z-score, which band applies to COCCOC(=O)N1C(=O)[C@@]2(c3cc(C#CCNC(N)=O)ccc31)[C@H](c1ccc(O)cc1)N1[C@H](c3ccccc3)[C@H](c3ccccc3)OC(=O)[C@H]1[C@@H]2C(=O)N1CCc2cc(OC)c(OC)cc2C1 ?
Marked response: band 3

Exam item: Using the reported z-score, which band applies to COC(=O)C(CC#Cc1ccc2c(c1)[C@]1(C(=O)N2)[C@H](C(=O)N2CCCCCCC2)[C@H]2C(=O)O[C@H](c3ccccc3)[C@H](c3ccccc3)N2[C@@H]1c1ccc(OCCO)cc1)C(=O)OC ?
Marked response: band 2

Exam item: Using the reported z-score, which band applies to CCc1cccc(NC(=O)O[C@H]2[C@H](OC(=O)Nc3ccccc3-c3ccccc3)[C@H](OC(=O)Nc3ccccc3-c3ccccc3)[C@@H](OC)O[C@@H]2CO)c1 ?
Marked response: band 3

Exam item: Using the reported z-score, which band applies to Cc1ccc(S[C@]2(C(=O)NC(C)C)CC(=O)N(Cc3ccccc3)[C@@H]2c2ccc(CO)cc2)cc1 ?
Marked response: band 1

Exam item: Using the reported z-score, which band applies to C=CC[C@]12N=C(c3ccc(OCCCO)cc3)O[C@H]1c1ccccc1N(CCC)C2=O ?
Marked response: band 1
